# Test system: SETVI (Setaria viridis)
# assayExplanation: Preemergence herbicidal evaluation
# Format: in vivo, (L.) Beau
# conditionsUsed: Rate 0.0620 kg/ha; preemergence; rated 4-5 weeks after treatment
Reported SETVI preemergence herbicidal rating values for the following compounds.
Just the number, please.

| compound | SETVI preemergence herbicidal rating |
| --- | --- |
| Cn1c(C(F)(F)F)cc(=O)n(-c2ccc3snc(C4SCCS4)c3c2)c1=O [Compound 24] | 3.5 |

Form field: reported SETVI preemergence herbicidal rating of Cc1cccnc1-c1nsc2ccc(-n3c(=O)cc(C(F)(F)F)n(C)c3=O)cc12 [Compound 19] 9.0

Form field: reported SETVI preemergence herbicidal rating of Cn1c(C(F)(F)F)cc(=O)n(-c2ccc3snc(C4OCCS4)c3c2)c1=O (centres unmarked) [Compound 31] 7.7

Form field: reported SETVI preemergence herbicidal rating of CC(=O)N1CCSC1c1nsc2ccc(-n3c(=O)cc(C(F)(F)F)n(C)c3=O)cc12 (centres unmarked) [Compound 29] 6.5

Form field: reported SETVI preemergence herbicidal rating of CC1CCOC(c2nsc3ccc(-n4c(=O)cc(C(F)(F)F)n(C)c4=O)cc23)O1 (centres unmarked) [Compound 37] 9.0

Form field: reported SETVI preemergence herbicidal rating of Cc1ccc(-c2nsc3ccc(-n4c(=O)cc(C(F)(F)F)n(C)c4=O)cc23)s1 [Compound 21] 6.5

Form field: reported SETVI preemergence herbicidal rating of Cn1c(C(F)(F)F)cc(=O)n(-c2ccc3snc(C4OCCCO4)c3c2)c1=O [Compound 28] 9.0

Form field: reported SETVI preemergence herbicidal rating of CN(C(=O)c1nsc2ccc(-n3c(=O)cc(C(F)(F)F)n(C)c3=O)cc12)c1ccc(Cl)cc1 [Compound 18] 8.0

Form field: reported SETVI preemergence herbicidal rating of Cn1c(C(F)(F)F)cc(=O)n(-c2ccc3snc(C4SCCN4C(=O)c4ccccc4)c3c2)c1=O (centres unmarked) [Compound 30] 1.0

Form field: reported SETVI preemergence herbicidal rating of Cn1c(C(F)(F)F)cc(=O)n(-c2ccc3snc(-c4ccccn4)c3c2)c1=O [Compound 9] 9.0

Form field: reported SETVI preemergence herbicidal rating of Cn1c(C(F)(F)F)cc(=O)n(-c2ccc3snc(C4OCC(C)(C)CO4)c3c2)c1=O [Compound 36] 9.0

---

# Tested on: GALAP (Galium aparine)
# assayExplanation: Postemergence herbicidal evaluation
# Assay type: in vivo
# conditionsUsed: rate 0.0320 kg/ha
Label fulfilled when Postemergence herbicidal rating, GALAP is strictly below 2; otherwise label not fulfilled.

Answered cases to consult:
| molecule | assignedClass |
| --- | --- |
| Cn1c(C(F)(F)F)cc(=O)n(-c2ccc3snc(C4SCCS4)c3c2)c1=O | not fulfilled |
| Cn1c(C(F)(F)F)cc(=O)n(-c2ccc3snc(-c4ccsc4)c3c2)c1=O | not fulfilled |
| Cc1ccc(-c2nsc3ccc(-n4c(=O)cc(C(F)(F)F)n(C)c4=O)cc23)nc1 | fulfilled |
| Cn1c(C(F)(F)F)cc(=O)n(-c2ccc3snc(C(SCCO)SCCO)c3c2)c1=O | fulfilled |
| COC(=O)C(C)Oc1ccsc1-c1nsc2ccc(-n3c(=O)cc(C(F)(F)F)n(C)c3=O)cc12 (centres unmarked) | fulfilled |
| CCOC(=O)C1CS[C@H](c2nsc3ccc(-n4c(=O)cc(C(F)(F)F)n(C)c4=O)cc23)N1 (some centres unmarked) | not fulfilled |

Given Cn1c(C(F)(F)F)cc(=O)n(-c2ccc3snc(C4OCCS4)c3c2)c1=O (centres unmarked) , is recorded Postemergence herbicidal rating, GALAP strictly lower than 2? not fulfilled

---

# Test system: ORYSAT (Rice, Tebonnet)
# assayExplanation: Flooded paddy, post-transplant rice tolerance
# Format: in vivo, Oryza sativa, (L.) Tebonnet
# conditionsUsed: flooded paddy, post-transplant rice; rate 0.1250 kg/ha; rated 3-4 weeks after treatment; 0-9 rating scale
Reported herbicidal rating, ORYSAT (rice tolerance) values for the following molecules.
Just the number, please.

| molecule | numericResult |
| --- | --- |
| C[C@@H]1C[C@H](C)OC(c2nsc3ccc(-n4c(=O)cc(C(F)(F)F)n(C)c4=O)cc23)O1 (stereo partly drawn) [Compound 51] | 9.0 |

For the next question, use this molecule.
Form field: reported herbicidal rating, ORYSAT (rice tolerance) of Cn1c(C(F)(F)F)cc(=O)n(-c2ccc3snc(C4OCC(CCl)O4)c3c2)c1=O (stereo not drawn) 8.0

---

Reported Preemergence herbicidal rating IPOHE values for the following molecules.
# System: IPOHE (Ipomoea hederacea)
# assayExplanation: Preemergence herbicidal evaluation
# Format: in vivo, (L.) Jacq.
# conditionsUsed: Rate 0.0620 kg/ha; rated 4-5 weeks after treatment

Worked examples, 3 molecules total:
| molecule | Preemergence herbicidal rating IPOHE |
| --- | --- |
| Cn1c(C(F)(F)F)cc(=O)n(-c2ccc3snc(C4OCCO4)c3c2)c1=O | 9.0 |
| CCCC1COC(c2nsc3ccc(-n4c(=O)cc(C(F)(F)F)n(C)c4=O)cc23)O1 (stereo not drawn) | 3.0 |
| Cc1cccnc1-c1nsc2cc(F)c(-n3c(=O)cc(C(F)(F)F)n(C)c3=O)cc12 | 3.0 |

Form field: reported Preemergence herbicidal rating IPOHE of `C[C@H]1OC(c2nsc3ccc(-n4c(=O)cc(C(F)(F)F)n(C)c4=O)cc23)O[C@@H]1C` 8.0

---

# Test system: CYPSE (Cyperus serotinus)
# assayExplanation: Flooded paddy, postemergence weed control
# Format: in vivo, Rottb.
# conditionsUsed: 0.1250 kg/ha into flood water; postemergence weeds; rated 3-4 weeks after treatment
metric: herbicide rating (0-9) CYPSE
Just the number, please.

| compound | herbicide rating (0-9) CYPSE |
| --- | --- |
| Cn1c(C(F)(F)F)cc(=O)n(-c2cc3c(C4OCCO4)nsc3cc2F)c1=O [Compound 61] | 9.0 |
| Cc1ccc(-c2nsc3ccc(-n4c(=O)cc(C(F)(F)F)n(C)c4=O)cc23)s1 [Compound 21] | 0.0 |
| Cn1c(C(F)(F)F)cc(=O)n(-c2ccc3snc(-c4ccsc4)c3c2)c1=O [Compound 1] | 7.0 |
| Cc1cc(C)c(-c2nsc3ccc(-n4c(=O)cc(C(F)(F)F)n(C)c4=O)cc23)s1 [Compound 27] | 4.0 |

Form field: reported herbicide rating (0-9) CYPSE of Cn1c(C(F)(F)F)cc(=O)n(-c2ccc3snc(-c4ncccn4)c3c2)c1=O [Compound 12] 0.0

---

# System: ORYSAT (Rice, Tebonnet)
# assayExplanation: Postemergence herbicidal evaluation
# Format: in vivo, Oryza sativa, (L.) Tebonnet
# conditionsUsed: postemergence, rate 0.0320 kg/ha
# Protocol: In the tests, seedling plants are grown in jiffy flats for about two weeks. […] After spraying, the plants are placed on greenhouse benches and are cared for in accordance with conventional greenhouse procedures. From four to five weeks after treatment, the seedling plants are examined and rated according to the rating system set forth below. Where more than one test is involved for a given compound, the data are averaged. Results of herbicide evaluation are expressed on a rating scale (0-9). […]
Binary classification by ORYSAT herbicidal rating, with 4 as an inclusive lower bound for 1; all other cases are 0.

Answered cases to consult:
| molecule | assignedClass |
| --- | --- |
| Cn1c(C(F)(F)F)cc(=O)n(-c2ccc3snc(C4(C)OCCO4)c3c2)c1=O | 1 |
| C=CC1COC(c2nsc3ccc(-n4c(=O)cc(C(F)(F)F)n(C)c4=O)cc23)O1 (stereo not drawn) | 0 |

Threshold query (ORYSAT herbicidal rating >= 4) on `Cc1nn(-c2nsc3ccc(-n4c(=O)cc(C(F)(F)F)n(C)c4=O)cc23)c(C)c1C` 0

Threshold query (ORYSAT herbicidal rating >= 4) on `Cn1c(C(F)(F)F)cc(=O)n(-c2ccc3snc(C4OC(C)(C)C(C)(C)O4)c3c2)c1=O` 0

Threshold query (ORYSAT herbicidal rating >= 4) on `Cc1cnn(-c2nsc3ccc(-n4c(=O)cc(C(F)(F)F)n(C)c4=O)cc23)c1` 0

Threshold query (ORYSAT herbicidal rating >= 4) on CC(C)C1COC(c2nsc3ccc(-n4c(=O)cc(C(F)(F)F)n(C)c4=O)cc23)=N1 (stereo not drawn) 0

Threshold query (ORYSAT herbicidal rating >= 4) on `Cn1c(C(F)(F)F)cc(=O)n(-c2ccc3snc(-c4ccoc4)c3c2)c1=O` 0

Threshold query (ORYSAT herbicidal rating >= 4) on `C=C1COC(c2nsc3ccc(-n4c(=O)cc(C(F)(F)F)n(C)c4=O)cc23)OC1` 0

Threshold query (ORYSAT herbicidal rating >= 4) on CCCC1COC(c2nsc3ccc(-n4c(=O)cc(C(F)(F)F)n(C)c4=O)cc23)O1 (stereo not drawn) 0

Threshold query (ORYSAT herbicidal rating >= 4) on Cn1c(C(F)(F)F)cc(=O)n(-c2ccc3snc(C4OCC5(CO4)CO5)c3c2)c1=O (stereo not drawn) 1

Threshold query (ORYSAT herbicidal rating >= 4) on `Cn1c(C(F)(F)F)cc(=O)n(-c2ccc3snc(-c4nc5ccccc5[nH]c4=O)c3c2)c1=O` 0
